test system: WIL2; experiment: Growth inhibitory activity against human lymphoblastoid W1L2 cell line in presence of 10 uM thymidine/50 uM hypoxanthine; format: functional, cell-based
pIC50: −log10 of the molar value.
EXPERIMENTAL READOUT: pIC50

1) C#CCN(Cc1cc2c(=O)n(CC(=O)OC)c(CN3CCCCC3)nc2cc1Cl)c1ccc(C(=O)NCc2cccnc2)cc1 ... 8.02
2) C#CCN(Cc1cc2c(=O)n(C)c(CN3CCN(C)CC3)nc2cc1Cl)c1ccc(C(=O)NCc2cccnc2)cc1 ... 9.49
3) C#CCN(Cc1cc2c(=O)n(C)c(CN3CCC[C@H]3C(=O)OC)nc2cc1Cl)c1ccc(C(=O)NCc2cccnc2)cc1 ... 7.85
4) C#CCN(Cc1cc2c(=O)n(C)c(CN3CCC(O)CC3)nc2cc1Cl)c1ccc(C(=O)NCc2cccnc2)cc1 ... 9.15
5) C#CCN(Cc1cc2c(=O)n(C)c(CN(CC)CC)nc2cc1Cl)c1ccc(C(=O)NCc2cccnc2)cc1 ... 9.14
6) C#CCN(Cc1cc2c(=O)n(C)c(CN3CCN(CCO)CC3)nc2cc1Cl)c1ccc(C(=O)NCc2cccnc2)cc1 ... 8.15
7) C#CCN(Cc1cc2c(=O)n(CC(=O)N(CC)CC)c(CN3CCCCC3)nc2cc1Cl)c1ccc(C(=O)NCc2cccnc2)cc1 ... 8.08
8) C#CCN(Cc1cc2c(=O)n(C)c(CN3CCN(CC)CC3)nc2cc1Cl)c1ccc(C(=O)NCc2cccnc2)cc1 ... 9.11

====

assay: Solubility at pH 7.4 was determined; format: physicochemical; details: buffer
EXPERIMENTAL READOUT: solubility (µM)

1) C#CCN(Cc1cc2c(=O)n(CC(=O)N(CC)CC)c(CN3CCCCC3)nc2cc1Cl)c1ccc(C(=O)NCc2cccnc2)cc1 ... 2
2) C#CCN(Cc1cc2c(=O)n(C)c(CN3CCOCC3)nc2cc1Cl)c1ccc(C(=O)NCc2cccnc2)cc1 ... 2
3) C#CCN(Cc1cc2c(=O)n(C)c(CN3CCCCC3)nc2cc1Cl)c1ccc(C(=O)NCCCn2cncn2)cc1 ... 6
4) C#CCN(Cc1cc2c(=O)n(C)c(CN3CCN(CCO)CC3)nc2cc1Cl)c1ccc(C(=O)NCc2cccnc2)cc1 ... 75
5) C#CCN(Cc1cc2c(=O)n(C)c(CN3CCN(c4ccccc4)CC3)nc2cc1Cl)c1ccc(C(=O)NCc2cccnc2)cc1 ... 5
6) C#CCN(Cc1cc2c(=O)n(C)c(CN3CCN(C)CC3)nc2cc1Cl)c1ccc(C(=O)NCCCn2ccnc2)cc1 ... 96
7) C#CCN(Cc1cc2c(=O)n(C)c(CN3CCN(CC)CC3)nc2cc1Cl)c1ccc(C(=O)NCc2cccnc2)cc1 ... 286
8) C#CCN(Cc1cc2c(=O)n(C)c(CN3CCN(C)CC3)nc2cc1Cl)c1ccc(C(=O)NCc2cccnc2)cc1 ... 146
9) C#CCN(Cc1cc2c(=O)n(C)c(CN3CCC(O)CC3)nc2cc1Cl)c1ccc(C(=O)NCc2cccnc2)cc1 ... 0.5

====

system: WIL2; experiment: Growth inhibitory activity against human lymphoblastoid W1L2 cell line in presence of 10 uM thymidine/50 uM hypoxanthine; type: functional, cell-based
pIC50: −log10 of the molar value.
EXPERIMENTAL READOUT: pIC50

1) C#CCN(Cc1cc2c(=O)n(C)c(CN3CCCC3)nc2cc1Cl)c1ccc(C(=O)NCc2cccnc2)cc1 ... 9.12
2) C#CCN(Cc1cc2c(=O)n(C)c(CN3CCCCC3)nc2cc1Cl)c1ccc(C(=O)NCCCn2cncn2)cc1 ... 6.10
3) C#CCN(Cc1cc2c(O)nc(C)nc2cc1Br)c1ccc(C(=O)NCc2cccnc2)cc1 ... 8.66
4) C#CCN(Cc1cc2c(=O)n(C)c(CN3CCN(C)CC3)nc2cc1Cl)c1ccc(C(=O)NCCCn2ccnc2)cc1 ... 8.64
5) C#CCN(Cc1cc2c(=O)n(CC(=O)N3CCCCC3)c(CN3CCCCC3)nc2cc1Cl)c1ccc(C(=O)NCc2cccnc2)cc1 ... 8.13
6) C#CCN(Cc1cc2c(=O)n(C)c(CN3CCCCC3)nc2cc1Cl)c1ccc(C(=O)NCc2cccnc2)cc1 ... 9.11
7) C#CCN(Cc1cc2c(=O)n(C)c(CN3CCOCC3)nc2cc1Cl)c1ccc(C(=O)NCc2cccnc2)cc1 ... 8.70
8) C#CCN(Cc1cc2c(=O)n(C)c(CN3CCN(c4ccccc4)CC3)nc2cc1Cl)c1ccc(C(=O)NCc2cccnc2)cc1 ... 8.27

====

assay: Solubility at pH 6.0 was determined; assay type: physicochemical; settings: buffer
EXPERIMENTAL READOUT: log10(solubility) (log10 of the value in µM)

1) C#CCN(Cc1cc2c(=O)n(C)c(CN3CCN(c4ccccc4)CC3)nc2cc1Cl)c1ccc(C(=O)NCc2cccnc2)cc1 ... 1.36
2) C#CCN(Cc1cc2c(=O)n(C)c(CN3CCOCC3)nc2cc1Cl)c1ccc(C(=O)NCc2cccnc2)cc1 ... 0.48
3) C#CCN(Cc1cc2c(=O)n(C)c(CN3CCCCC3)nc2cc1Cl)c1ccc(C(=O)NCCCn2cncn2)cc1 ... 1.90
4) C#CCN(Cc1cc2c(=O)n(CC(=O)N(CC)CC)c(CN3CCCCC3)nc2cc1Cl)c1ccc(C(=O)NCc2cccnc2)cc1 ... 0.30
5) C#CCN(Cc1cc2c(=O)n(C)c(CN3CCN(C)CC3)nc2cc1Cl)c1ccc(C(=O)NCc2cccnc2)cc1 ... 2.80
6) C#CCN(Cc1cc2c(=O)n(C)c(CN3CCN(CCO)CC3)nc2cc1Cl)c1ccc(C(=O)NCc2cccnc2)cc1 ... 3.00
7) C#CCN(Cc1cc2c(=O)n(C)c(CN3CCC(O)CC3)nc2cc1Cl)c1ccc(C(=O)NCc2cccnc2)cc1 ... 0.30
8) C#CCN(Cc1cc2c(=O)n(C)c(CN3CCN(CC)CC3)nc2cc1Cl)c1ccc(C(=O)NCc2cccnc2)cc1 ... 3.25
9) C#CCN(Cc1cc2c(=O)n(C)c(CN3CCN(C)CC3)nc2cc1Cl)c1ccc(C(=O)NCCCn2ccnc2)cc1 ... 2.97

====

assay: Solubility at pH 6.0; format: physicochemical; settings: buffer
EXPERIMENTAL READOUT: solubility

1) C#CCN(Cc1cc2c(O)nc(C)nc2cc1Br)c1ccc(C(=O)NCc2cccnc2)cc1 ... < 1 µM

====

tested on: Proteasome; assay: Chymotryptic inhibitory activity against 26S proteasome; type: functional, subcellular
pIC50: −log10 of the molar value.
EXPERIMENTAL READOUT: pIC50

1. C#CCN(Cc1cc2c(=O)n(C)c(CN3CCN(C)CC3)nc2cc1Cl)c1ccc(C(=O)NCc2cccnc2)cc1 ... 5.52

From: ChEMBL document CHEMBL1135972
